- System: SNB-75 CNS
- method notes: NCI tumour cell line growth inhibition, 48 h; in the data active = GI50 below about 0.43 µM; inactive = the rest
// classify into label 1 = active, label 0 = inactive

Consider the worked cases shown below.
# compound, assigned class
data = [
    ("O=C(Nc1n[nH]c2nc(-c3ccc(O)cc3)c(Br)cc12)C1CC1", "label 0"),
    ("CC1=C2[C@@H](CC1)[C@]1(C)O[C@@](C(C)C)(C[C@H]1OC(=O)CO)[C@H]2OC(=O)CCCc1ccccc1", "label 0"),
    ("CCOC(=O)Nc1ccc2c(c1)C(=O)N(CC)c1ccccc1O2", "label 1"),
    ("O=C1/C(=C/c2ccc(F)cc2)CN(C(=O)C(Cl)Cl)C/C1=C\\c1ccc(F)cc1", "label 0"),
    ("CC1(C)N=c2cc3c(cc2N1c1ccc(Cl)cc1)=Nc1ccccc1N3c1ccc(Cl)cc1", "label 0"),
]

Hi team, can someone confirm the assay call for `COc1cc2c(cc1O)c(=O)n(CCN(C)C)c1c3cc4c(cc3ncc21)OCO4` ?
label 1

Repeat with `COc1ccc(CNCCCN2C(=O)c3ccc4c5c(ccc(c35)C2=O)C(=O)N(CCCNCc2ccc(OC)c(OC)c2OC)C4=O)c(OC)c1OC`
label 1

Repeat with CCCCC(OC(=O)c1ccc(N)cc1)C(=O)Nc1nc(CC(=O)OCC)cs1 (stereo not given)
label 0

Repeat with `COc1ccc2c(c1)C(=O)c1c-2c(N2CCN(C(=O)CCNCCNCCN)CC2)nc2ccccc12`
label 0

Repeat with `O=C(Nc1ccccc1Cl)c1ccc(NC2=C(Cl)C(=O)N(C3CCCCC3)C2=O)cc1`
label 0

Repeat with `CC[C@]12C=CCN3CC[C@@]4(c5ccc(OC)cc5N(C)[C@H]4[C@@](O)(C(=O)OC)[C@@H]1OC(=O)CCC(=O)O[C@H]1CC[C@H]4[C@@H]5CC[C@H]6CC(=O)CC[C@]6(C)[C@H]5CC[C@]14C)[C@@H]32`
label 0

Repeat with CC(C)CCCCCCCCCCCCC(=O)NCC(=O)NC1C(C)OC(Nc2ncnc3nc[nH]c23)C(O)C1O (stereo not given)
label 1

Repeat with `O=C(CCCC(=O)N/N=C/c1cc(Cl)ccc1O)N/N=C\c1cc(Cl)ccc1O`
label 0

Repeat with `CC1(C)CCc2c(c(N=Nc3ccccc3F)c3ccccc3c2O)O1`
label 0

Repeat with `COc1cc(NS(C)(=O)=O)ccc1Cc1c2ccccc2nc2ccccc12`
label 1
